measured.on: C5 (Homo sapiens)
Sequence (P01031 19-1676): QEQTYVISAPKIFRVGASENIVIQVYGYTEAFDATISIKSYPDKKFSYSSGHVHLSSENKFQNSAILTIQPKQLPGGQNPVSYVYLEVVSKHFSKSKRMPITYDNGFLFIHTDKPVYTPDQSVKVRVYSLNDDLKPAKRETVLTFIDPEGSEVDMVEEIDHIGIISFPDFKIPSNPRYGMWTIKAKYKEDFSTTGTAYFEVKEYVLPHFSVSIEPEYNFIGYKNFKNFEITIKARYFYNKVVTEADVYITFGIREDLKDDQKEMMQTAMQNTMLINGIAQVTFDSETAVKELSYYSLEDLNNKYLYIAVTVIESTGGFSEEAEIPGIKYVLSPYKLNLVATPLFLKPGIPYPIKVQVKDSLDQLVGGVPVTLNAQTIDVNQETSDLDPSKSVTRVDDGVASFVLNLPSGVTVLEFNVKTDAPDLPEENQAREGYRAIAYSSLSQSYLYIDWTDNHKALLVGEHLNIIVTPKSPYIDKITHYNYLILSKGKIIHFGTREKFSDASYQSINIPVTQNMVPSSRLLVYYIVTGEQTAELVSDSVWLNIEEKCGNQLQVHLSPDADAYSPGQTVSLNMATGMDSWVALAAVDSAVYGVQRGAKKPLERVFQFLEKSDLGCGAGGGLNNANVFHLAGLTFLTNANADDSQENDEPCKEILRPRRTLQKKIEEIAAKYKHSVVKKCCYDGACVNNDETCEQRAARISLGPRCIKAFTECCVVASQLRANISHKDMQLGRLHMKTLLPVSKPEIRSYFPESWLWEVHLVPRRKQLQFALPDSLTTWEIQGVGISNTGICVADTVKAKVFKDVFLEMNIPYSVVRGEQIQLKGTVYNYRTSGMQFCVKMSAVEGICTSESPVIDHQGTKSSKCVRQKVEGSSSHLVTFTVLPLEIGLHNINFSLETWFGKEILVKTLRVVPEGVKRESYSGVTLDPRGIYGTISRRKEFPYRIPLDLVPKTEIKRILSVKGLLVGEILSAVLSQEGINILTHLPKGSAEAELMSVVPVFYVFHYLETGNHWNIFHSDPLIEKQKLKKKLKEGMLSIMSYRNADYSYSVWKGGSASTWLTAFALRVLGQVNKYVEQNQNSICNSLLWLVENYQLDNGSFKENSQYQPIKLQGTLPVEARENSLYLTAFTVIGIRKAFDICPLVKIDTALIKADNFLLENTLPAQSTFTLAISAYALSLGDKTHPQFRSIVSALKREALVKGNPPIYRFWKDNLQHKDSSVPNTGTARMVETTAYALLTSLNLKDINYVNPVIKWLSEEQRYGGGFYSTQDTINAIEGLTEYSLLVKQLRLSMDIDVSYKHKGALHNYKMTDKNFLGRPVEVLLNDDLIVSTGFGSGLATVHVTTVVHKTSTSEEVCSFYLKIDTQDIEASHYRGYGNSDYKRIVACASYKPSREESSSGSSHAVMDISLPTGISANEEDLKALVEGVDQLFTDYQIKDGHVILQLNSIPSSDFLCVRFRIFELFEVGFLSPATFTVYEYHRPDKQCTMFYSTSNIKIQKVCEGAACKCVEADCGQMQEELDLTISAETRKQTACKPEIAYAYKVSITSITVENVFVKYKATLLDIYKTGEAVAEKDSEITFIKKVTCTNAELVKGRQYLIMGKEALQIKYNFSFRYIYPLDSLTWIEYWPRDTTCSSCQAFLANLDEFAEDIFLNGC
assay.text: Monoclonal phage screening ELISA, human C5
Assay type: binding
condition.notes: anti-C5 ultralong CDR-H3; binder = OD>0.2 AU
measurement.name: Specificity

These recorded examples may help you get a feel for the data.
# substance, Specificity
measured = [
    ("558 (TTVHQKTKKSCPLGYAINDRCDDLKTCGPDECCLNGVVNAYGICEYEGESATHTYELYVE; Anti-C5 ultralong CDR-H3) [compound 558]", "Human and Rat"),
    ("557 (TTVHLKTKKSCPLGYAINDRCDDLKTCGPDECCLNGVVNAYGICEYEGESATHTYEWYVD; Anti-C5 ultralong CDR-H3) [compound 557]", "Human and Rat"),
    ("571 (TTVHQRTIKSGCPPGYKSGVDCSPGSECKWGCYAVDGRRYGGYGADSGVGSTYTHEWYVD; Anti-C5 ultralong CDR-H3) [compound 571]", "Human"),
    ("546 (TTVHQRTKKTCPLGYDLNDRCDHFNTCRVEECCKNGVVNAYGICEYAGGSATYTYEWYVE; Anti-C5 ultralong CDR-H3) [compound 546]", "Human"),
    ("570 (TTVHQRTIKSGCPPGYKSGVDCSPGSEYKWGCYAVDGRRYGGYGADSGVGSTYTHEFYVN; Anti-C5 ultralong CDR-H3) [compound 570]", "Human"),
    ("560 (TTVHQRTAKRCPSNNEDATACRYSSVCGDYVCEGLSESYAQGWGACRRYACRDSYEWYVD; Anti-C5 ultralong CDR-H3) [compound 560]", "Human"),
    ("562 (TTVHQQTTKKSSCPDGYCDCNGCGYGNGCSRGGCFDFRLYSGYSADIVVSTTYTHDFYID; Anti-C5 ultralong CDR-H3) [compound 562]", "Human"),
    ("550 (TTVHQRTLHNRNCPDGYGYQRHCTVGEDCTERCCDNYGLCTSYTDTYTYEFYVN; Anti-C5 ultralong CDR-H3) [compound 550]", "Human"),
    ("548 (TTVHQRTLKNRNCPDGYGYQRHCTVGEDCTDSCCDRYGLCTTSTETYTYEWYVD; Anti-C5 ultralong CDR-H3) [compound 548]", "Human"),
    ("543 (TTVHQRTLKNRNCPDGYGYQRHCTVGEDCTDHCCDAYGLCTSYTYTYTYEWYVD; Anti-C5 ultralong CDR-H3) [compound 543]", "Human"),
]

Task: // returns reported Specificity for input 565 (TTVHQRTIKSGCPPGYKSGVDCSPGSECKWGCYAVDGRRYGGYGADSGVGSTYTHELYVE; Anti-C5 ultralong CDR-H3) [compound 565]
Output: Human

Task: // returns reported Specificity for input 567 (TTVHQRTTKRCPSNNEDATACRYSSVCGDYVCEGLSESYAQGWGACRRYACRDSYEWYVD; Anti-C5 ultralong CDR-H3) [compound 567]
Output: Human

Task: // returns reported Specificity for input 551 (TTVHQRTKKTCPLGYDLNYRCDHFNTCRVEECCKNGVVNAYGICEYAGGSATYTYEWYVD; Anti-C5 ultralong CDR-H3) [compound 551]
Output: Human and Rat

Task: // returns reported Specificity for input 552 (TTVHQRTKEERTCPSGCSWFSGCWDTYRCGPSVCCRDGRYGCAAIICRDTYEWYVD; Anti-C5 ultralong CDR-H3) [compound 552]
Output: Human and Rat

Task: // returns reported Specificity for input 554 (TTVHQKTKKTCPRGYHYNDRCDFFNTCRVEECCLNGVVNTYGICEYEGGSATYTYEWYVD; Anti-C5 ultralong CDR-H3) [compound 554]
Output: Human and Rat

Data credit: patent US20240024520A1
